Let's look at some compounds and their measured IC50.
assayedTarget: TIP48/TIP49 complex (Homo sapiens, UniProt Q9Y230+Q9Y265)
Sequence (Q9Y230 whole entry): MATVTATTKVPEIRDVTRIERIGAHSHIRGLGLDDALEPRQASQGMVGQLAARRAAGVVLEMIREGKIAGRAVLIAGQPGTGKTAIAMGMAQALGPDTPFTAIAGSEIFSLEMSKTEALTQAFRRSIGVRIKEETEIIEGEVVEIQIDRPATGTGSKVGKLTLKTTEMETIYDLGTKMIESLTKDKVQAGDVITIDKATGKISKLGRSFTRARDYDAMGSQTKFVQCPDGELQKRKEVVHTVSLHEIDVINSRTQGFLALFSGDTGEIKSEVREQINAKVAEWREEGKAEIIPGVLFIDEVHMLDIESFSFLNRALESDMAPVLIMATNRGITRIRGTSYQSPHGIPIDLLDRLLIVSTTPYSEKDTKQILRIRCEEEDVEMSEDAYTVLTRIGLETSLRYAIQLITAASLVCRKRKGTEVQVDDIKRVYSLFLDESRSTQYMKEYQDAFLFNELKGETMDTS
Sequence (Q9Y265 whole entry): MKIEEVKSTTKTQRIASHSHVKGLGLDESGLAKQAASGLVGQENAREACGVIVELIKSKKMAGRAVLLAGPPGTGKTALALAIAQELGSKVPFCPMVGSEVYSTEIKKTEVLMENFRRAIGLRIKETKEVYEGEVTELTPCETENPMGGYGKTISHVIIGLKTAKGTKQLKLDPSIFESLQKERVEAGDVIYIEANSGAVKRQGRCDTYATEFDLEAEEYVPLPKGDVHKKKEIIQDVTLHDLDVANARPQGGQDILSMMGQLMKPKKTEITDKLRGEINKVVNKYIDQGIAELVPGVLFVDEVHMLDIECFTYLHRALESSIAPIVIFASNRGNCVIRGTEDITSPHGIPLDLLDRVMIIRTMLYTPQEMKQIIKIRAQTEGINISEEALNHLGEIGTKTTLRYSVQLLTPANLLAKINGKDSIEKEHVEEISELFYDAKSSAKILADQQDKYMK
protocolDetails: ATPase assay of TIP48/TIP49 complex (ADP-Glo)
studyConditions: concentration at which the ATPase activity was inhibited by 50%
measurementLabel: IC50 (nM)

[[record]]
cpdsmiles = "CCOc1ccc(Cl)cc1C(=O)NCC(C)(C)CC(=O)Nc1c([C@@H](C)CN(C)C)n(C)n(-c2ccccc2)c1=O"
measurementlabel = "IC50"
reading = 36

[[record]]
cpdsmiles = "CCOc1ccc(Cl)cc1C(=O)NCC(C)(C)CC(=O)Nc1c(CCN(C)C)n(CC)n(-c2ccccc2)c1=O"
measurementlabel = "IC50"
reading = 33

[[record]]
cpdsmiles = "Cc1cc2cc(Cl)cc(C(=O)NCC(C)(C)CC(=O)Nc3c(C[C@@H](C)N(C)C)n(C)n(-c4ccccc4)c3=O)c2o1"
measurementlabel = "IC50"
reading = 50


----------
Tested on: human lymphoma cell line RAMOS cells
protocolDetails: Cell growth inhibition test using RAMOS cell, ATP assay (CellTiter-Glo)
Format: cell-based
studyConditions: Homo sapiens, Ramos, 72 h, cultured 3 days, 50% growth inhibition concentration
Procedure: A cell growth inhibition test was carried out by treating human lymphoma cell line RAMOS cells with a test compound for a given period and then counting the number of viable cells by MTT assay or CellTiter-Glo Luminescent Cell Viability Assay (manufactured by Promega Corp.; hereinafter, referred to as ATP assay). […] The number of viable cells and luminescence intensity have been confirmed to correlate with each other. […] T/C % at each concentration of the test compound was determined. […]
measurementLabel: GI50

[[record]]
compound = "CCOc1ncc(Cl)cc1C(=O)NCC(C)(C)CC(=O)Nc1c(CCN(C)C)n(C)n(-c2ccccc2)c1=O"
assayedtarget = "human lymphoma cell line RAMOS cells"
measurementlabel = "GI50"
reading = "610 nM"

[[record]]
compound = "CCOc1ccc(Cl)cc1C(=O)NCC(C)(C)CC(=O)Nc1c(C(C)OC)n(C)n(-c2ccccc2)c1=O (stereo not shown)"
assayedtarget = "human lymphoma cell line RAMOS cells"
measurementlabel = "GI50"
reading = "140 nM"

[[record]]
compound = "CCOc1ccc(Cl)cc1C(=O)NCC(C)(C)CC(=O)Nc1c(CC(C)(C)N(C)C)n(C)n(-c2ccccc2)c1=O"
assayedtarget = "human lymphoma cell line RAMOS cells"
measurementlabel = "GI50"
reading = "120 nM"

[[record]]
compound = "CCOc1ncc(Cl)cc1C(=O)NCC(C)(C)CC(=O)Nc1c(CC(C)(C)N(C)C)n(C)n(-c2ccccc2)c1=O"
assayedtarget = "human lymphoma cell line RAMOS cells"
measurementlabel = "GI50"
reading = "190 nM"

[[record]]
compound = "CCOc1ccc(Cl)cc1C(=O)NCC(C)(C)CC(=O)Nc1c(C(C)C(C)(C)N(C)C)n(C)n(-c2ccccc2)c1=O (stereo not shown)"
assayedtarget = "human lymphoma cell line RAMOS cells"
measurementlabel = "GI50"
reading = "120 nM"

[[record]]
compound = "CCOc1ccc(Cl)cc1C(=O)NCC(C)(C)CC(=O)Nc1c([C@@H](C)CN(C)C)n(C)n(-c2ccccc2)c1=O"
assayedtarget = "human lymphoma cell line RAMOS cells"
measurementlabel = "GI50"
reading = "150 nM"

[[record]]
compound = "CCOc1ncc(Cl)cc1C(=O)NCC(C)(C)CC(=O)Nc1c(C(C)CNC)n(C)n(-c2ccccc2)c1=O (stereo not shown)"
assayedtarget = "human lymphoma cell line RAMOS cells"
measurementlabel = "GI50"
reading = "800 nM"

[[record]]
compound = "CCOc1cc(F)c(Cl)cc1C(=O)NCC(C)(C)CC(=O)Nc1c(CCNCC(F)(F)F)n(C)n(-c2ccccc2)c1=O"
assayedtarget = "human lymphoma cell line RAMOS cells"
measurementlabel = "GI50"
reading = "130 nM"

[[record]]
compound = "CCOc1ccc(Cl)cc1C(=O)NCC(C)(C)CC(=O)Nc1c(CCN(C)C)n(C)n(-c2cccc(Cl)n2)c1=O"
assayedtarget = "human lymphoma cell line RAMOS cells"
measurementlabel = "GI50"
reading = "250 nM"

[[record]]
compound = "CCOc1cc(F)c(Cl)cc1C(=O)NCC(C)(C)CC(=O)Nc1c([C@H](C)CN(C)C)n(C)n(-c2ccccc2)c1=O"
assayedtarget = "human lymphoma cell line RAMOS cells"
measurementlabel = "GI50"
reading = "160 nM"

[[record]]
compound = "CCOc1ncc(Cl)cc1C(=O)NCC(C)(C)CC(=O)Nc1c([C@H](C)CN(C)C)n(C)n(-c2ccccc2)c1=O"
assayedtarget = "human lymphoma cell line RAMOS cells"
measurementlabel = "GI50"
reading = "310 nM"

[[record]]
compound = "CCOc1ccc(Cl)cc1C(=O)NCC(C)(C)CC(=O)Nc1c(CCC(F)(F)F)n(C)n(-c2ccccc2)c1=O"
assayedtarget = "human lymphoma cell line RAMOS cells"
measurementlabel = "GI50"
reading = "310 nM"

[[record]]
compound = "CCOc1ncc(Cl)cc1C(=O)NCC(C)(C)CC(=O)Nc1c(C[C@H](C)N(C)C)n(C)n(-c2ccccc2)c1=O"
assayedtarget = "human lymphoma cell line RAMOS cells"
measurementlabel = "GI50"
reading = "240 nM"

[[record]]
compound = "CCOc1ccc(Cl)cc1C(=O)NCC(C)(C)CC(=O)Nc1c(CCCC(=O)N(C)C)n(C)n(-c2ccccc2)c1=O"
assayedtarget = "human lymphoma cell line RAMOS cells"
measurementlabel = "GI50"
reading = "190 nM"

[[record]]
compound = "CCOc1ccc(Cl)cc1C(=O)NCC(CF)(CF)CC(=O)Nc1c(COC)n(C)n(-c2ccccc2)c1=O"
assayedtarget = "human lymphoma cell line RAMOS cells"
measurementlabel = "GI50"
reading = "230 nM"

[[record]]
compound = "COCOc1cc(F)c(Cl)cc1C(=O)NCC(C)(C)CC(=O)Nc1c(COC)n(C)n(-c2ccccc2)c1=O"
assayedtarget = "human lymphoma cell line RAMOS cells"
measurementlabel = "GI50"
reading = "140 nM"

